Test: UV absorption properties (λmax, molar extinction coefficient ε, efficiency E 1%, 1 cm)
Type: physicochemical
Conditions: Table 8b, N-phenyl compounds
measured parameter: λmax (nm)

compound: CCC(=O)C1=CN(c2ccc(C)cc2)CCC1(C)C [drawing 135]
measured parameter: λmax
assay result: 327
--
compound: COc1ccc(N2C=C(C(=O)Cc3ccccc3)C(C)(C)CC2)cc1 [drawing 133]
measured parameter: λmax
assay result: 334
--
compound: CCCCCCCC(=O)C1=CN(c2ccc(N(C)C)cc2)CCC1(C)C [drawing 134]
measured parameter: λmax
assay result: 338
--
compound: CCC(=O)C1=CN(c2ccc(C(C)(C)C)cc2)CCC1(C)C [drawing 136]
measured parameter: λmax
assay result: 329
